assayOverview: Kinetic solubility in PBS at pH 7.4 incubated under shaking condition for 24 hrs by LC-MS/MS analysis
Format: physicochemical
conditionInfo: read-out: Kinetic_solubility
Please go through the items and note down their solubility kinetic at 24 h.
One number for each entry, in µM.

Look over these answered cases.
{"chemSmiles": "CC(C)[C@H]1CC[C@H](C)C[C@H]1N", "obsValue": 0.625}
{"chemSmiles": "CC(C)[C@H]1CC[C@@H](C)C[C@H]1N", "obsValue": 147}
{"chemSmiles": "CC(C)[C@H]1CC[C@H](C)C[C@H]1N1C(=O)c2ccccc2C1=O", "obsValue": 0.03}
{"chemSmiles": "CC(C)[C@H]1CC[C@H](C)C[C@@H]1N", "obsValue": 146}
{"chemSmiles": "CC(C)[C@@H]1CC[C@@H](C)C[C@H]1OC(=O)c1ccc([N+](=O)[O-])cc1", "obsValue": 0.61}
{"chemSmiles": "CC(C)[C@H]1CC[C@@H](C)C[C@@H]1N", "obsValue": 150}
{"chemSmiles": "CC(C)[C@H]1CC[C@@H](C)C[C@@H]1N1C(=O)c2ccccc2C1=O", "obsValue": 0.03}

Next up:
Task: Fill blank: measured solubility kinetic at 24 h of the molecule `CC(C)[C@@H]1CC[C@@H](C)C[C@@H]1OC(=O)c1ccc([N+](=O)[O-])cc1` is ____.
Result: 0.031

---

assayOverview: Apparent permeability across apical to basolateral side in human Caco-2 cells at 2 uM incubated for 2 hrs by LC-MS/MS analysis
Format: ADME, cell-based
conditionInfo: Caco-2
Please go through the items and note down their Papp A→B at 2 h, 2 µM.
Give bare numbers, in ×10⁻⁶ cm/s.

Look over these answered cases.
{"compound": "CC(C)[C@H]1CC[C@@H](C)C[C@@H]1N1C(=O)c2ccccc2C1=O", "Papp A→B at 2 h, 2 µM (×10⁻⁶ cm/s)": 25.7}
{"compound": "CC(C)[C@@H]1CC[C@@H](C)C[C@@H]1OC(=O)c1ccc([N+](=O)[O-])cc1", "Papp A→B at 2 h, 2 µM (×10⁻⁶ cm/s)": 24.4}
{"compound": "C[C@H]1O[C@@H](O[C@H]2[C@@H](O)C[C@H](O[C@H]3[C@@H](O)C[C@H](O[C@H]4CC[C@@]5(C)[C@H](CC[C@@H]6[C@@H]5C[C@@H](O)[C@]5(C)[C@@H](C7=CC(=O)OC7)CC[C@]65O)C4)O[C@@H]3C)O[C@@H]2C)C[C@H](O)[C@@H]1O", "Papp A→B at 2 h, 2 µM (×10⁻⁶ cm/s)": 0.15}
{"compound": "COCCc1ccc(OCC(O)CNC(C)C)cc1 (stereo not given)", "Papp A→B at 2 h, 2 µM (×10⁻⁶ cm/s)": 25.1}

Next up:
Task: Fill blank: measured Papp A→B at 2 h, 2 µM of the compound `CC(C)[C@H]1CC[C@H](C)C[C@@H]1N` is ____.
Result: 46

---

Tested on: U-87 MG
assayOverview: Induction of cell cycle arrest in human U87 cells assessed as decrease in number of cells at G2 phase at 80 uM incubated for 24 hrs by RNase/PI staining based flow cytometry
Type: functional
conditionInfo: U-87MG ATCC
The source made the active and inactive calls. No cut-off for these calls is given here.
Return exactly one item of active, inactive

{"compound": "CC(C)[C@H]1CC[C@H](C)C[C@@H]1O [RACEMENTHOL]", "cat": "inactive"}
{"compound": "CC(C)[C@@H]1CC[C@@H](C)C[C@@H]1OC(=O)c1ccc([N+](=O)[O-])cc1", "cat": "inactive"}
{"compound": "CC(C)[C@H]1CC[C@@H](C)C[C@H]1N", "cat": "active"}
{"compound": "CC(C)[C@H]1CC[C@@H](C)C[C@@H]1N1C(=O)c2ccccc2C1=O", "cat": "inactive"}
{"compound": "CC(C)[C@@H]1CC[C@@H](C)C[C@H]1OC(=O)c1ccc([N+](=O)[O-])cc1", "cat": "inactive"}

Task: Could you kindly confirm the outcome this assay logged for `CC(C)[C@H]1CC[C@H](C)C[C@@H]1N` ?
Result: inactive

Task: Could you kindly confirm the outcome this assay logged for `CC(C)[C@@H]1CC[C@@H](C)C[C@H]1O` ?
Result: inactive
